tested on: ABL1-phosphorylated; conditions: concentration: 1 μM, replicates: in singlicate; n = 1;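 note: KINOMEscan kinase panel screen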
Known %Inh of a selection of molecules

- smiles repr: "Cl.NS(=O)(=O)c1cccc(Nc2cc(-c3ccc(F)cc3)n[nH]2)c1"
  %Inh, %: 24
- smiles repr: "CCC(=O)c1c(-c2ccccc2)c2cc(Cl)ccc2c(=O)n1Cc1cc(S(C)(=O)=O)n(CCC(C)(C)O)n1"
  %Inh, %: 3
- smiles repr: "O=C(NCc1cccs1)c1cc(C(=O)c2c(Cl)cccc2Cl)c[nH]1"
  %Inh, %: 27
- smiles repr: "COc1cc2ncn(-c3cc(OCc4ccncc4Br)c(C(N)=O)s3)c2cc1OC"
  %Inh, %: 0
- smiles repr: "Nc1nc(-c2ccccc2F)c(-c2ccnc3ccccc23)s1"
  %Inh, %: 0
- smiles repr: "COc1cc2ncn(-c3cc(OCc4ccc(S(C)(=O)=O)cc4)c(C(N)=O)s3)c2cc1OC"
  %Inh, %: 13
